# IC50 per entry
Test system: HuCCA-1 (human chlolangiocarcinoma)
Test: MTT cytotoxicity assay, HuCCA-1
Settings: Homo sapiens, HuCC-A1, read-out: Cytotoxicity IC50, HuCCA-1, HuCCA-1 cell line, MTT assay
Reply with just the number (in µM).

CC1=C(CC/C(C)=C/CC/C(=C/CC2OC(=O)C=C2CO)CO)C(C)(C)CCC1 (centres unmarked) [Compound 13, (6Z)-neomanoalide] = 94.7
CC1=C(CC/C(C)=C/CC/C(=C\CC2OC(=O)C=C2CO)CO)C(C)(C)CCC1 (centres unmarked) [Compound 12, (6E)-neomanoalide] = 119

Incoming: Recorded IC50 of COC1OC(C2=CC(=O)OC2O)CC=C1CCC=C(C)CCC1=C(C)CCCC1(C)C (centres unmarked) [Compound 8, 24-O-methylmanoalide] , please.
Outgoing: 11

Incoming: Cool, now COC1OC(=O)C=C1C(O)CC=C(C=O)CCC=C(C)CCC1=C(C)CCCC1(C)C (centres unmarked) [Compound 3, seco-manoalide-25-methyl ether]
Outgoing: 24.7

Incoming: Cool, now CC(=O)O[C@@H]1CC2[C@@]3(C)CCCC(C)(C)C3CC[C@@]2(C)C2CCC3=C(C(=O)OC3)[C@]21C (some centres unmarked) [Compound 17, 12-acetylscalarolide]
Outgoing: 60.8
